System: H2405 cells
protocol-notes: H2405 Cell Proliferation Assay (1)
Type: cell-based
applied-conditions: Homo sapiens, NCI-H2405
pIC50: −log10 of the molar value.
Provide the reported pIC50 of each item.

# count of solved cases: 4
molecule: COC(=O)Nc1cc(-c2cc(-c3cc(NC(=O)c4ccnc(C(C)(C)F)c4)ccc3C)cc(OCCO)n2)ccn1 [Example 401]
pIC50: 6.30 to 7.00
//
molecule: Cc1ncc(NC(=O)c2ccnc(C3CC3)c2)cc1-c1nccc(-c2ccnc(NC(=O)C3CC3)c2)n1 [Example 295]
pIC50: 6.30 to 7.00
//
molecule: Cc1cc(F)c(NC(=O)c2ccnc(C(F)F)c2)cc1-c1ccnc(-c2ccnc(NC(=O)C3CC3)c2)c1 [Example 307]
pIC50: ≥ 7.00
//
molecule: Cc1cc(F)c(NC(=O)c2ccnc(C(C)(C)C#N)c2)cc1-c1ccnc(-c2ccnc(NC=O)c2)c1 [Example 104]
pIC50: ≥ 7.00

In the following, a different molecule is considered.
Q: GET /values?readout=pIC50&item= CNC(=O)c1cc(-c2cc(-c3cc(NC(=O)c4ccnc(C(C)(C)C#N)c4)ccc3C)cc(C3CC3)n2)ccn1 [Example 163]
Ans: ≥ 7.00

* * *

assayed-system: C-Raf kinase (SEQ. ID NO: 3) (Homo sapiens (Human), UniProt P04049, Y340D/Y341D)
Sequence (P04049 307-648 Y340D/Y341D): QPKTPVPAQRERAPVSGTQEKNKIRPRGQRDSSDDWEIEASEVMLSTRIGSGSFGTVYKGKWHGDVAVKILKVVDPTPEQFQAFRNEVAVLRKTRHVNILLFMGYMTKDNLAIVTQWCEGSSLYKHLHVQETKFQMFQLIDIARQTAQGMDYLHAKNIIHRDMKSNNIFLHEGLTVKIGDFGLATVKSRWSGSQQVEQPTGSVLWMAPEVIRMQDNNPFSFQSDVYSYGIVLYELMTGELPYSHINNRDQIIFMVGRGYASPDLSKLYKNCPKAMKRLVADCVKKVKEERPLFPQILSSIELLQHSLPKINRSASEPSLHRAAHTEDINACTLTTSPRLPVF
protocol-notes: Biochemical Assay for C-Raf (1)
applied-conditions: Table J, assay version (1); read-out: CRAF (1) IC50
metric-name: IC50

# count of solved cases: 5
compound: Cc1ccc(NC(=O)c2cnn(C(C)(C)C)c2)cc1-c1cc(-c2ccnc(NC(=O)C3CC3)c2)cnn1
assay-result: ≤ 100 nM
//
compound: Cc1ccc(NC(=O)C23CCC(C#N)(CC2)CC3)cc1-c1ccnc(-c2ccnc(NC(=O)C3CC3)c2)n1
assay-result: 100 to 500 nM
//
compound: CO[C@H]1CC[C@H](C(=O)Nc2cnc(C)c(-c3cccc(-c4cc(NC(=O)C5CC5)ncn4)c3)c2)CC1
assay-result: 100 to 500 nM
//
compound: Cc1ccc(NC(=O)c2ccnc(C(C)(C)C#N)c2)cc1-c1cccc(-c2ccnc3[nH]ncc23)c1
assay-result: ≤ 100 nM
//
compound: Cc1ncc(NC(=O)c2cnn(C(C)(C)C)c2)cc1-c1cccc(-c2cc(NC(=O)C3CC3)ncn2)c1
assay-result: ≤ 100 nM

Here are 4 compounds. What values of IC50 were reported for them?
1. Cc1ncc(NC(=O)c2cncc(C(F)F)c2)cc1-c1cccc(-c2cc(NC(=O)C3CC3)ncn2)c1
2. Cc1ccc(NC(=O)c2cccc(C(C)(C)C#N)c2)cc1-c1cncc(-c2ccnc(C(=O)NC3CC3)c2)n1
3. COC(=O)Nc1cc(-c2cc(-c3cc(NC(=O)c4ccnc(C(F)F)c4)cnc3C)ccn2)ccn1
4. CCOc1ncc(-c2cc(NC(=O)c3ccnc(C(F)(F)F)c3)ccc2C)cc1-c1ccnc(NC(C)=O)c1

Ans:
1. ≤ 100 nM
2. 100 to 500 nM
3. ≤ 100 nM
4. ≤ 100 nM

Here are 8 compounds. What values of IC50 were reported for them?
1. Cc1cc(F)c(NC(=O)c2ccnc(C(C)(C)C#N)c2)cc1-c1ccnc(-c2ccnc(NC(=O)C3CC3)c2)n1
2. COC(C)(C)c1cc(C(=O)Nc2ccc(C)c(-c3nccc(-c4ccnc(NC(=O)C5CC5)c4)n3)c2)ccn1
3. CNC(=O)c1cc(-c2nccc(-c3cc(NC(=O)c4ccnc(C(F)(F)F)c4)ccc3C)n2)ccn1
4. CC(=O)Nc1cc(-c2cccc(-c3cc(NC(=O)c4ccnc(C(F)(F)F)c4)ccc3C)c2)ncn1
5. CC(=O)Nc1cc(-c2cncc(-c3cc(NC(=O)c4ccc(Cl)c(C(F)(F)F)c4)ccc3C)n2)ccn1
6. CNC(=O)c1cc(-c2cc(-c3cc(NC(=O)c4cccc(C(C)(C)C#N)c4)ccc3C)cc(OCCO)n2)ccn1
7. Cc1ccc(NC(=O)c2ccnc(C(C)(C)C#N)c2)cc1-c1ccnc(-c2ccnc(N)c2)n1
8. Cc1ccc(NC(=O)c2ccnc(C(F)(F)F)c2)cc1-c1cncc(-c2ccnc(N)c2)n1

Ans:
≤ 100 nM
≤ 100 nM
≤ 100 nM
≤ 100 nM
≤ 100 nM
≤ 100 nM
≤ 100 nM
≤ 100 nM

Here are 5 compounds. What values of IC50 were reported for them?
1. Cc1ncc(NC(=O)c2cn(C(C)C)nn2)cc1-c1ccnc(-c2ccnc(NC(=O)C3CC3)c2)n1
2. CNC(=O)c1cc(-c2cnnc(-c3cc(NC(=O)c4ccc(Cl)c(OC)c4)cnc3C)c2)ccn1
3. CC(=O)Nc1cc(-c2cncc(-c3cc(NC(=O)c4ccnc(C5CC5)c4)ccc3C)n2)ccn1
4. Cc1ncc(NC(=O)C2CCOC2)cc1-c1nccc(-c2ccnc(NC(=O)C3CC3)c2)n1 (centres unmarked)
5. Cc1cc(-c2cc(NC(=O)c3ccnc(C(F)(F)F)c3)ccc2C)cc(-c2ccnc3c2CC(=O)N3)n1

Ans:
1: ≤ 100 nM; 2: 1000 to 10000 nM; 3: ≤ 100 nM; 4: 1000 to 10000 nM; 5: ≤ 100 nM

Q: GET /values?readout=IC50&item= CNC(=O)c1cc(-c2nccc(-c3cc(NC(=O)c4ccnc(C(C)(C)C#N)c4)c(F)cc3C)n2)ccn1
Ans: 100 to 500 nM

* * *

assayed-system: B-Raf (V600E) (SEQ. ID NO: 4) kinase (Homo sapiens (Human), UniProt P15056, V600E)
Sequence (P15056 416-766 V600E): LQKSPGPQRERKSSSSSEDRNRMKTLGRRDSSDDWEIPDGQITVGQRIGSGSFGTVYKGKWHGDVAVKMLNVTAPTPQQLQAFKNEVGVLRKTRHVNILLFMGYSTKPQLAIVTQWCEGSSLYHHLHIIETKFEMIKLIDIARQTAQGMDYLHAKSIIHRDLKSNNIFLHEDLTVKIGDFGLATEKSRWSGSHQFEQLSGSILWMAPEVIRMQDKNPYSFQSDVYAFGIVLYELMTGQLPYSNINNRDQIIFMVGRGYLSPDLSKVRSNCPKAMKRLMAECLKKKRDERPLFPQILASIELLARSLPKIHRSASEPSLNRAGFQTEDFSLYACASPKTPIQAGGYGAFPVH
protocol-notes: Biochemical Assay for B-Raf (V600E) (2)
applied-conditions: Table J, BRAF V600E, biochemical assay (2); read-out: BRAF VE (2)
pIC50: −log10 of the molar value.
Provide the reported pIC50 of each item.

# count of solved cases: 5
compound: Cc1ccc(NC(=O)c2ccnc(C(C)(C)F)c2)cc1-c1ccnc(-c2ccnc(C#N)c2)c1 [Example 447]
assayed-system: B-Raf (V600E) (SEQ. ID NO: 4) kinase (Homo sapiens (Human), UniProt P15056, V600E)
pIC50: 6.30 to 7.00

compound: Cc1cc(-c2cc(NC(=O)c3ccnc(C(C)(C)F)c3)ccc2C)cc(-c2ccnc(C(N)=O)c2)n1 [Example 484]
assayed-system: B-Raf (V600E) (SEQ. ID NO: 4) kinase (Homo sapiens (Human), UniProt P15056, V600E)
pIC50: ≥ 7.00

compound: Cc1ccc(NC(=O)c2ccnc(C(C)(C)F)c2)cc1-c1ccnc(-c2ccnc(C(=O)NCCO)c2)c1 [Example 448]
assayed-system: B-Raf (V600E) (SEQ. ID NO: 4) kinase (Homo sapiens (Human), UniProt P15056, V600E)
pIC50: ≥ 7.00

compound: CNC(=O)c1cc(-c2cc(-c3cc(NC(=O)c4ccnc(C5(F)CC5)c4)ccc3C)cc(C)n2)ccn1 [Example 496]
assayed-system: B-Raf (V600E) (SEQ. ID NO: 4) kinase (Homo sapiens (Human), UniProt P15056, V600E)
pIC50: ≥ 7.00

compound: CNC(=O)c1cc(-c2cc(-c3cc(NC(=O)c4ccnc(C(C)(C)F)c4)ccc3C(F)(F)F)ccn2)ccn1 [Example 471]
assayed-system: B-Raf (V600E) (SEQ. ID NO: 4) kinase (Homo sapiens (Human), UniProt P15056, V600E)
pIC50: 5.00 to 6.00

In the following, a different compound is considered.
Q: GET /values?readout=pIC50&item= CNC(=O)c1cc(-c2cc(-c3cc(NC(=O)c4cnnc(C(C)(C)F)c4)ccc3C)ccn2)ccn1 [Example 495]
Ans: ≥ 7.00

* * *

Provide the reported pIC50 of each item.
System: H2405 cells
protocol-notes: H2405 Cell Proliferation Assay (1)
Type: cell-based
applied-conditions: Homo sapiens, NCI-H2405
pIC50: −log10 of the molar value.

smiles: CNC(=O)c1cc(-c2cc(-c3cc(NC(=O)CCC(C)(C)C#N)ccc3C)ccn2)ccn1
metric-name: pIC50
assay-result: 5.00 to 6.00
--
smiles: CNC(=O)c1cc(-c2cc(-c3cc(NC(=O)c4ccnc(C(C)(C)OC)c4)ccc3C)ccn2)ccn1
metric-name: pIC50
assay-result: 6.30 to 7.00

Q: GET /values?readout=pIC50&item= Cc1ncc(NC(=O)c2ccnc(C3CC3)c2)cc1-c1cccc(-c2ccnc(NC(=O)C3CC3)c2)n1
Ans: 6.30 to 7.00

* * *

assayed-system: C-Raf kinase (SEQ. ID NO: 3) (Homo sapiens (Human), UniProt P04049, Y340D/Y341D)
protocol-notes: Biochemical Assay for C-Raf (1)
applied-conditions: Table J, assay version (1); read-out: CRAF (1) IC50
Experimental: Biochemical Assay for C-Raf (1) Activity of C-Raf kinase (SEQ. ID NO: 3) was determined spectroscopically using a coupled pyruvate kinase/lactate dehydrogenase assay that continuously monitors the ATP hydrolysis-dependent oxidation of NADH (e.g., Schindler et al., Science, 2000, 289, 1938-1942). […] Inhibition of C-Raf was measured by adding serial diluted test compound (final assay concentration of 1% DMSO). […] The reaction rate was calculated using the 4 to 5 h time frame. […]
pIC50: −log10 of the molar value.
metric-name: pIC50

# count of solved cases: 2
smiles: COC(=O)Nc1cc(-c2cnnc(-c3cc(NC(=O)c4ccnc(C(C)(C)C#N)c4)ccc3C)c2)ccn1
assayed-system: C-Raf kinase (SEQ. ID NO: 3) (Homo sapiens (Human), UniProt P04049, Y340D/Y341D)
pIC50: ≥ 7.00
//
smiles: CNC(=O)c1cc(-c2cc(-c3cc(NC(=O)c4ccnc(C(C)(C)C#N)c4)ccc3C#N)ccn2)ccn1
assayed-system: C-Raf kinase (SEQ. ID NO: 3) (Homo sapiens (Human), UniProt P04049, Y340D/Y341D)
pIC50: 6.30 to 7.00

Q: GET /values?readout=pIC50&item= Cc1ccc(NC(=O)c2ccnc(C3(C#N)CC3)c2)cc1-c1cncc(-c2ccnc(NC(=O)C3CC3)c2)n1
Ans: ≥ 7.00
